# target.or.system: T1, TAM-AT1-AT2 Baz2B (Homo sapiens, UniProt Q9UIF8 721-884)
# T1 sequence: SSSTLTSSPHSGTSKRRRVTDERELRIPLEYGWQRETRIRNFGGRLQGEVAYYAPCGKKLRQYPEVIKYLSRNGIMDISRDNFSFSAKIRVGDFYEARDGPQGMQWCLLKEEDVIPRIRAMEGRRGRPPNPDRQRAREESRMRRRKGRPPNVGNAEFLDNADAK
# protocol.description: EMSA; EMSA: 20 mM HEPES pH 7.5, 30 mM KCl, 1 mM EDTA, 10 mM (NH4)2SO4, 1 mM DTT, 4 C, 10 nM probe; MST: same plus 0.1 ug/ml BSA, 5 nM probe, 25 C; GST-AT-hook and bromodomain EMSA as in cited refs
# test.parameters: protein: recombinant; tags: His6
parameter: Kd (nM)
Give just the number in nM; leave the unit off.

### Prompt So what's the measured Kd for this one? ATCAGTTCTCCGGGTTGTCAGGTCGACCAGTTGTTCCTTTGAGGT (ssDNA) [45 nt ssDNA FLP015]
### Response 122

Origin of values: paper PMC10783490
